# test.system: Maternal embryonic leucine zipper kinase (Homo sapiens) (UniProt Q14680);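 further: each value is the mean inhibition of MELK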
# Sequence (Q14680 whole entry, looked up): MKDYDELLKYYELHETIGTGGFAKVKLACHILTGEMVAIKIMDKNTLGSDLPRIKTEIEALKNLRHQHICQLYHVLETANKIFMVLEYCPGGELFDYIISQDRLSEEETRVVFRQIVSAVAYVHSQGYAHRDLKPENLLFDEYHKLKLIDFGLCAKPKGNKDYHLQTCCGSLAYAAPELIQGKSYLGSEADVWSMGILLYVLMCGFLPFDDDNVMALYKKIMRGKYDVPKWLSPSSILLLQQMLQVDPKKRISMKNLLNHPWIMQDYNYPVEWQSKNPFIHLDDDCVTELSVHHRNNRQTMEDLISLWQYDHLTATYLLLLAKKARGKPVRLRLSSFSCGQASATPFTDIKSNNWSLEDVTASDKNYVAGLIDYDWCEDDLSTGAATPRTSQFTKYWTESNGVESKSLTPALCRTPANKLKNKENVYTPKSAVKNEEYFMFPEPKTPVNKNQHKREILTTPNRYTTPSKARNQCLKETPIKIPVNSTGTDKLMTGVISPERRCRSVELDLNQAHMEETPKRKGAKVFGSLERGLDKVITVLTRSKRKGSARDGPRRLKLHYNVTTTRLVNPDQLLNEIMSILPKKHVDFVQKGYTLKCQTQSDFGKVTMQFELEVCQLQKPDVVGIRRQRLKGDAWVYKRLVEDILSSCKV
# condition: at 1 µM
Provide the recorded inhibition for the entries that follow.
Your answer is read as %, so omit the unit and give the number.

Report inhibition from Maternal embryonic leucine zipper kinase (Homo sapiens) (UniProt Q14680) testing of `Nc1nc(-c2ccccn2)c(-c2ccc3ncccc3n2)s1`
7.64

Report inhibition from Maternal embryonic leucine zipper kinase (Homo sapiens) (UniProt Q14680) testing of `CN1CCC(C(=O)Nc2n[nH]c3nnc(-c4ccccc4)cc23)CC1`
5.92

Report inhibition from Maternal embryonic leucine zipper kinase (Homo sapiens) (UniProt Q14680) testing of `COc1ccc(COc2ccc(Cc3cnc(N)nc3N)cc2OC)cc1`
-1.43

Report inhibition from Maternal embryonic leucine zipper kinase (Homo sapiens) (UniProt Q14680) testing of `CS(=O)(=O)Nc1ccc(N/C=C2\C(=O)Nc3ccccc32)cc1`
20.9

Report inhibition from Maternal embryonic leucine zipper kinase (Homo sapiens) (UniProt Q14680) testing of `CC(=O)Nc1cccc(C#Cc2cncnc2Nc2ccc(OCc3cccc(F)c3)c(Cl)c2)n1`
-2.61

Report inhibition from Maternal embryonic leucine zipper kinase (Homo sapiens) (UniProt Q14680) testing of `CS(=O)(=O)CCNCc1ccc(-c2ccc3ncnc(Nc4ccc(OCc5cccc(F)c5)c(C(F)(F)F)c4)c3c2)o1`
3.14

Report inhibition from Maternal embryonic leucine zipper kinase (Homo sapiens) (UniProt Q14680) testing of `c1cnn2ncc(-c3ccnc(Nc4ccc5c(c4)OCCO5)n3)c2c1`
51.6

Report inhibition from Maternal embryonic leucine zipper kinase (Homo sapiens) (UniProt Q14680) testing of `CCn1c(-c2nonc2N)nc2cncc(C(=O)N3CCNCC3)c21`
9.51

Report inhibition from Maternal embryonic leucine zipper kinase (Homo sapiens) (UniProt Q14680) testing of `Cc1nn(C)c2cc(N(C)c3ccnc(Nc4cccc(S(N)(=O)=O)c4)n3)ccc12`
5

Report inhibition from Maternal embryonic leucine zipper kinase (Homo sapiens) (UniProt Q14680) testing of `CNC(=O)c1cncc(/C=C/c2c(Cl)cccc2Cl)c1`
14.7

Report inhibition from Maternal embryonic leucine zipper kinase (Homo sapiens) (UniProt Q14680) testing of `COc1ccc(-c2nn3ncccc3c2-c2ccnc(Nc3ccc(Cl)c(C(F)(F)F)c3)n2)cc1`
4.8

Report inhibition from Maternal embryonic leucine zipper kinase (Homo sapiens) (UniProt Q14680) testing of `COc1cc2ncn(-c3cc(O[C@@H](C)c4ccccc4Cl)c(C(N)=O)s3)c2cc1OC`
9.71

Report inhibition from Maternal embryonic leucine zipper kinase (Homo sapiens) (UniProt Q14680) testing of `COc1cc(C)c(NC(=O)CN(C)C)cc1Nc1nc(Nc2cccc(F)c2C(N)=O)c2cc[nH]c2n1`
18.1

Report inhibition from Maternal embryonic leucine zipper kinase (Homo sapiens) (UniProt Q14680) testing of `CCn1c(-c2nonc2N)nc2c(N3CCCC3)nccc21`
6.1

Report inhibition from Maternal embryonic leucine zipper kinase (Homo sapiens) (UniProt Q14680) testing of `Cc1cc(O)cc(C)c1/C=C/c1cncc(-c2nn[nH]n2)c1`
8.68

Report inhibition from Maternal embryonic leucine zipper kinase (Homo sapiens) (UniProt Q14680) testing of `NC(=O)c1ccc(-c2nc(-c3ccccn3)c(-c3ccc4c(c3)OCO4)[nH]2)cc1`
2.1

Report inhibition from Maternal embryonic leucine zipper kinase (Homo sapiens) (UniProt Q14680) testing of `COc1cc2ncn(-c3cc(OCc4ccccc4Cl)c(C(N)=O)s3)c2cc1OC`
8.87

Report inhibition from Maternal embryonic leucine zipper kinase (Homo sapiens) (UniProt Q14680) testing of `CCn1c(-c2nonc2N)nc2cnc(Oc3cccc(NC(=O)c4ccc(OCCN5CCOCC5)cc4)c3)cc21`
50.5

Report inhibition from Maternal embryonic leucine zipper kinase (Homo sapiens) (UniProt Q14680) testing of `NS(=O)(=O)c1cccc(-c2ccc3c(NC(=O)C4CC4)n[nH]c3c2)c1`
3.48

Report inhibition from Maternal embryonic leucine zipper kinase (Homo sapiens) (UniProt Q14680) testing of `COc1ccc(-c2coc3ncnc(N)c23)cc1`
5.33

Report inhibition from Maternal embryonic leucine zipper kinase (Homo sapiens) (UniProt Q14680) testing of COc1ccc2cc(-c3c(-c4ccncc4)nc(-c4ccc([S+](C)[O-])cc4)n3C)ccc2c1 (stereo unspecified)
6.5

* * *

Provide the recorded inhibition for the entries that follow.
# test.system: Ephrin type-B receptor 2 (Homo sapiens) (UniProt P29323)
# Sequence (P29323 whole entry): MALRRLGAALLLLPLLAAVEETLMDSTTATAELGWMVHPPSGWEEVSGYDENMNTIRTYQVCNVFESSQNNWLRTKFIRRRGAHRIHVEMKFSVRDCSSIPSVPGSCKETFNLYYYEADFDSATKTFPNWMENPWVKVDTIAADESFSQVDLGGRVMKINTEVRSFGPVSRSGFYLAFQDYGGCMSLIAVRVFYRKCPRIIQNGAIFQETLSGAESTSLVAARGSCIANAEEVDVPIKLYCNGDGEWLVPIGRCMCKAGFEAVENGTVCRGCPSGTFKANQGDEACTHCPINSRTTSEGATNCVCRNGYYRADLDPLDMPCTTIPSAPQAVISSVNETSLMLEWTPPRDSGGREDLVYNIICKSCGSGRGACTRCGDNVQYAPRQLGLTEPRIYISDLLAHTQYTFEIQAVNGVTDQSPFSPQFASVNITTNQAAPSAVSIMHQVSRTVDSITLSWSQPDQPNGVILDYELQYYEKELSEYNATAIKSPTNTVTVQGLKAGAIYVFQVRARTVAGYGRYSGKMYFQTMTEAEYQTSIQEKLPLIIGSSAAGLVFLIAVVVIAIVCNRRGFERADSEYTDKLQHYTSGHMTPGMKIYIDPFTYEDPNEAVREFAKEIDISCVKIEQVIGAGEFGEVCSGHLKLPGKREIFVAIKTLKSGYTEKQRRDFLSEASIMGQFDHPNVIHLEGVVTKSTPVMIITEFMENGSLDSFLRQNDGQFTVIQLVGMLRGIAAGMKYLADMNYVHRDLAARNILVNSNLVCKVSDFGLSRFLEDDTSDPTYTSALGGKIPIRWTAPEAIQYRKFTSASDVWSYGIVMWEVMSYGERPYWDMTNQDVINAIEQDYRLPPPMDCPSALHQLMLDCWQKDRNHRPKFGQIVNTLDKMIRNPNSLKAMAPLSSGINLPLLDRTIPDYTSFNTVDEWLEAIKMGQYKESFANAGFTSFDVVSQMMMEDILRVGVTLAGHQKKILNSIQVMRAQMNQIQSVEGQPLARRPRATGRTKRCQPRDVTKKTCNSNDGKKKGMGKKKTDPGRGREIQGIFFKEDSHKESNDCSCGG
# condition: at 1 µM
# Description: GSK_PKIS: EPHB2 mean inhibition at 1 uM [Nanosyn]
Your answer is read as %, so omit the unit and give the number.

Report inhibition from Ephrin type-B receptor 2 (Homo sapiens) (UniProt P29323) testing of `CN(C)c1cc2c(Nc3ccc4nc(Cc5ccccc5)[nH]c4c3)ncnc2cn1`
15.3

Report inhibition from Ephrin type-B receptor 2 (Homo sapiens) (UniProt P29323) testing of `COc1cc2c(cc1Nc1nc(N3CCc4ccccc43)c3cc[nH]c3n1)N(C(=O)CN(C)C)CC2`
9.31

Report inhibition from Ephrin type-B receptor 2 (Homo sapiens) (UniProt P29323) testing of `Cc1cccc(-c2n[nH]cc2-c2ccc3ncccc3n2)n1`
5.67

Report inhibition from Ephrin type-B receptor 2 (Homo sapiens) (UniProt P29323) testing of COc1ccc2cc(-c3c(-c4ccncc4)nc(-c4ccc([S+](C)[O-])cc4)n3C)ccc2c1 (stereo unspecified)
6.51

Report inhibition from Ephrin type-B receptor 2 (Homo sapiens) (UniProt P29323) testing of `COc1cc(C=NNc2ncnc3c2cnn3-c2ccccc2)ccc1O`
18.2

Report inhibition from Ephrin type-B receptor 2 (Homo sapiens) (UniProt P29323) testing of `Cc1ccc(C(=O)NC2CCCCC2)cc1-c1ccc(C(=O)NCC2CC2)cc1`
7.74

Report inhibition from Ephrin type-B receptor 2 (Homo sapiens) (UniProt P29323) testing of `NC(=O)c1ccc(-c2nc(-c3ccccn3)c(-c3ccc4c(c3)OCO4)[nH]2)cc1`
6.48

Report inhibition from Ephrin type-B receptor 2 (Homo sapiens) (UniProt P29323) testing of `O=C1NC(=O)C(c2ccccc2Cl)=C1Nc1cccc(O)c1`
7.6

Report inhibition from Ephrin type-B receptor 2 (Homo sapiens) (UniProt P29323) testing of `O=C1NC(=O)C(c2ccc(Cl)cc2)=C1Nc1ccc(Cl)c(C(=O)O)c1`
1.8

Report inhibition from Ephrin type-B receptor 2 (Homo sapiens) (UniProt P29323) testing of `Nc1ncnc2occ(-c3ccc(NC(=O)Nc4cccc(C(F)(F)F)c4)cc3)c12`
78.2

Report inhibition from Ephrin type-B receptor 2 (Homo sapiens) (UniProt P29323) testing of `O=C1NC(=O)C(c2cccc(Cl)c2)=C1Nc1ccc(O)c(Cl)c1`
-8.35

* * *

# test.system: cGMP-dependent protein kinase 1 (Homo sapiens) (UniProt Q13976)
# Sequence (Q13976 whole entry): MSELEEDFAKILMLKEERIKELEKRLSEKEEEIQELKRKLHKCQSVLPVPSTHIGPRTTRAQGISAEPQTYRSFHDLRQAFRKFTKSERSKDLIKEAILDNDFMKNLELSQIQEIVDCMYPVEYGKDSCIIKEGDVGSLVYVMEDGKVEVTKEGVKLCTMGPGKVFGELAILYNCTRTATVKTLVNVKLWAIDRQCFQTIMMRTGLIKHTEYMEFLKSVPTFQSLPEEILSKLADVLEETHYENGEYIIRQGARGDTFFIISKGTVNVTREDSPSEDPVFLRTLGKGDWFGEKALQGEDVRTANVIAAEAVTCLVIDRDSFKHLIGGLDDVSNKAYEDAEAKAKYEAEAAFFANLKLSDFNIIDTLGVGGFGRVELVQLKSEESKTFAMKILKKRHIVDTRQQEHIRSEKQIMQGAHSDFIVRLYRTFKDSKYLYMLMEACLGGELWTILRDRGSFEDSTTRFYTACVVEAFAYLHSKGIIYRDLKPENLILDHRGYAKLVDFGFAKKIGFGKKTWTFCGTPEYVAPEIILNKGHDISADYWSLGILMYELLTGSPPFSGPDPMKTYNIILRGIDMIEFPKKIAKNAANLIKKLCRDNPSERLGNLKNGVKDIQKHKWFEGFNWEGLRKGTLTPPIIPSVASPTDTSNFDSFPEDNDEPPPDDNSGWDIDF
# condition: at 0.1 µM
# Description: GSK_PKIS: PRKG1 mean inhibition at 0.1 uM [Nanosyn]
Provide the recorded inhibition for the entries that follow.
Your answer is read as %, so omit the unit and give the number.

Specify inhibition for `NCc1ccc(-c2nc(-c3ccc(Cl)c(O)c3)c(-c3ccncc3)[nH]2)cc1` and stop.
0.03

Specify inhibition for `Fc1cccc(COc2ccc(Nc3ncnc4cc(-c5ccc[nH]5)sc34)cc2Cl)c1` and stop.
3.64

Specify inhibition for `CN(C)c1cc2c(Nc3ccc4nc(Cc5ccccc5)[nH]c4c3)ncnc2cn1` and stop.
5.01

Specify inhibition for `O=C1NC(=O)C(c2ccc(Cl)cc2)=C1Nc1ccc(Cl)c(C(=O)O)c1` and stop.
-0.49

Specify inhibition for `CS(=O)(=O)CCN(CC#N)Cc1ccc(-c2ccc3ncnc(Nc4ccc(OCc5cccc(F)c5)c(Cl)c4)c3c2)o1` and stop.
2.42

Specify inhibition for `COc1cc2ncn(-c3cc(OCc4ccccc4Cl)c(C(N)=O)s3)c2cc1OC` and stop.
1.08

Specify inhibition for `CS(=O)(=O)CCNCc1ccc(-c2ccc3ncnc(Nc4ccc(OCc5ccccc5)c(Cl)c4)c3c2)o1` and stop.
1.06

Specify inhibition for `COc1cc2ncn(-c3cc(O[C@H](C)c4ccccc4Cl)c(C(N)=O)s3)c2cc1OC` and stop.
3.62

Specify inhibition for `Cc1ccc(NC(=O)c2ccnc(N3CCCC3)c2)cc1-c1ccc(C(=O)NCC2CC2)cc1` and stop.
2.12

Specify inhibition for `Cc1cc(O)cc(C)c1/C=C/c1cncc(-c2nn[nH]n2)c1` and stop.
2.15

Specify inhibition for `CCn1c(-c2nonc2N)nc2cncc(C(=O)N3CCNCC3)c21` and stop.
5.91

Specify inhibition for `NC(=O)c1ccc(-c2nc(-c3ccccn3)c(-c3ccc4c(c3)OCO4)[nH]2)cc1` and stop.
0.18

Specify inhibition for `O=C1NC(=O)C(c2ccccc2Cl)=C1Nc1cccc(O)c1` and stop.
2.17

Specify inhibition for `c1cnn2ncc(-c3ccnc(Nc4ccc5c(c4)OCCO5)n3)c2c1` and stop.
4.87

Specify inhibition for `CCn1c(-c2nonc2N)nc2ccncc21` and stop.
0.57

Specify inhibition for `COc1ccc(-c2coc3ncnc(N)c23)cc1` and stop.
2.84

Specify inhibition for `CCCN1CCC=C(c2ccc(Nc3nc(Nc4ccccc4C(N)=O)c4cc[nH]c4n3)c(C)c2)C1` and stop.
4.43

Specify inhibition for `CCn1c(-c2nonc2N)nc2c(N3CCCC3)nccc21` and stop.
0.96

Specify inhibition for `COc1cc2c(cc1Nc1nc(N3CCc4ccccc43)c3cc[nH]c3n1)N(C(=O)CN(C)C)CC2` and stop.
2.84

Specify inhibition for `COc1cccc(-n2ncc3c(N/N=C/c4cccc(F)c4)ncnc32)c1` and stop.
2.15

Specify inhibition for `COc1ccc(-c2nn3ncccc3c2-c2ccnc(Nc3ccc(Cl)c(C(F)(F)F)c3)n2)cc1` and stop.
0.21
